These measurements were taken from paper PMC5224880.

This document collects IC50 values reported for PRMT3 (Homo sapiens, UniProt O60678).

{"columns": ["compound", "observed measurement"],
 "data": [
  ["N#Cc1c2c(c3nncn3c1NCc1ccco1)CN(Cc1ccccc1)CC2 [EED162]", "> 100 µM"]
]}

Proceeding to the next compound to report its IC50.
Result for COc1cccc(CC2CC3Cc4c(cccc4OC)CC3N(C)C2)c1 (centres unmarked) [EED210] , tested on PRMT3 (Homo sapiens, UniProt O60678), IC50: > 100 µM

====

NSD1 (Homo sapiens, UniProt Q96L73): reported IC50 for various compounds.

Use these answered entries as a reference point.
{"columns": ["compound", "IC50"],
 "data": [
  ["COc1cccc(CC2CC3Cc4c(cccc4OC)CC3N(C)C2)c1 (stereo not drawn)", "> 100 µM"],
  ["COc1ccccc1CN1CC(c2cn(C)c3ccccc23)C(N(C)C)C1 (stereo not drawn)", "> 100 µM"]
]}

Next:
Sample `N#Cc1c2c(c3nncn3c1NCc1ccco1)CN(Cc1ccccc1)CC2` , system: NSD1 (Homo sapiens, UniProt Q96L73). Its IC50 is > 100 µM

====

Item-by-item account of IC50
target: Suv39H2 (Homo sapiens, UniProt Q9H5I1)
Sequence (Q9H5I1 whole entry, species assumed): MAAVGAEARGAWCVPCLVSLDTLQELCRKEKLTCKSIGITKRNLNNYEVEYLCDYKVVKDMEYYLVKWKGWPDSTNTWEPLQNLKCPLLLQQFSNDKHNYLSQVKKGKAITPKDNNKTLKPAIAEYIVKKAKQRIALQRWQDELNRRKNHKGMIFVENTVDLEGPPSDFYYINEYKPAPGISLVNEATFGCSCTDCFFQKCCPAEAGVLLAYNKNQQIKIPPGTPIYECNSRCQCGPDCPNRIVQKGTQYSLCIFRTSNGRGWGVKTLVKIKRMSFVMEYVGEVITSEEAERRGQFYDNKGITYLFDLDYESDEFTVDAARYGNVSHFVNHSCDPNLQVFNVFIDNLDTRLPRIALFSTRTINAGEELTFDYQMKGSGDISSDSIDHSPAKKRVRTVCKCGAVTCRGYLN

Summary line: `COc1cc(-c2cc3n(c(=N)c2C#N)CCc2cc4c(cc2-3)OCO4)ccc1OC(C)C` , Suv39H2 (Homo sapiens, UniProt Q9H5I1), reported IC50 = > 100 µM

Per the reported Suv39H2 (Homo sapiens, UniProt Q9H5I1) data, `N#Cc1c2c(c3nncn3c1NCc1ccco1)CN(Cc1ccccc1)CC2` has IC50 of > 100 µM

# lookup: COc1cccc(CC2CC3Cc4c(cccc4OC)CC3N(C)C2)c1 (stereo not drawn) on Suv39H2 (Homo sapiens, UniProt Q9H5I1), IC50 = > 100 µM

====

Target: SETD6 (Homo sapiens, UniProt Q8TBK2)
Sequence (Q8TBK2 whole entry, species assumed): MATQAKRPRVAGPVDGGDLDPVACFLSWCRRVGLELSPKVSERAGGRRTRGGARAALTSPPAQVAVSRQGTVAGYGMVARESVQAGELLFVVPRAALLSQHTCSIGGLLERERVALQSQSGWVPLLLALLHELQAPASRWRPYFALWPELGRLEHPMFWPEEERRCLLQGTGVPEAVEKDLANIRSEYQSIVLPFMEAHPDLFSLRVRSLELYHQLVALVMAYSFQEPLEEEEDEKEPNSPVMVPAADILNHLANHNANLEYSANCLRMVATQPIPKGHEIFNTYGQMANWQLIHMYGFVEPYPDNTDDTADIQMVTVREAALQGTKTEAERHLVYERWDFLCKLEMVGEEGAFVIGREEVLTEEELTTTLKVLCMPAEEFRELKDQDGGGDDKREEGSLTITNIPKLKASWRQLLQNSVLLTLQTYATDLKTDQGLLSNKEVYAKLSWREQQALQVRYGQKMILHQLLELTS
Test: HMT panel selectivity: SETD6
Format: biochemical
Method: Note: for EZH2, EZH2/EED/SUZ12/RBAP48/AEBP2 was used in the assay; for EZH1, EZH1/EED/SUZ12/RBAP48/AEBP2 was used in the assay; for MLL, MLL/WDR5/RBBP5/ASH2L/ was use in the assay. a, H3K27me0 peptide was used as substrate for both EZH2 and EZH1 activity; b, H3K27me1 peptide was used as substrate for both EZH2 and EZH1 activity. All HMT reactions were performed as described previously. ref: Proc Natl Acad Sci U S A. 2012 Dec 26;109(52):21360-5.
pIC50: −log10 of the molar value.
value kind: pIC50

{"columns": ["compound", "pIC50"],
 "data": [
  ["N#Cc1c2c(c3nncn3c1NCc1ccco1)CN(Cc1ccccc1)CC2 [EED162]", "< 4.00"]
]}

Proceeding to the next compound to report its pIC50.
// sample COc1cccc(CC2CC3Cc4c(cccc4OC)CC3N(C)C2)c1 (centres unmarked) [EED210] , its pIC50 was < 4.00

====

target: His-EED (residues 1–441) (Homo sapiens, UniProt O75530)
value kind: IC50 (µM)
# output: bare number, implied unit µM

Noted IC50 for `N#Cc1c2c(c3nncn3c1NCc1ccco1)CN(Cc1ccccc1)CC2` , tested on His-EED (residues 1–441) (Homo sapiens, UniProt O75530): 0.32

====

Target: NSD2 (Homo sapiens, UniProt O96028)
Sequence (O96028 1-1365): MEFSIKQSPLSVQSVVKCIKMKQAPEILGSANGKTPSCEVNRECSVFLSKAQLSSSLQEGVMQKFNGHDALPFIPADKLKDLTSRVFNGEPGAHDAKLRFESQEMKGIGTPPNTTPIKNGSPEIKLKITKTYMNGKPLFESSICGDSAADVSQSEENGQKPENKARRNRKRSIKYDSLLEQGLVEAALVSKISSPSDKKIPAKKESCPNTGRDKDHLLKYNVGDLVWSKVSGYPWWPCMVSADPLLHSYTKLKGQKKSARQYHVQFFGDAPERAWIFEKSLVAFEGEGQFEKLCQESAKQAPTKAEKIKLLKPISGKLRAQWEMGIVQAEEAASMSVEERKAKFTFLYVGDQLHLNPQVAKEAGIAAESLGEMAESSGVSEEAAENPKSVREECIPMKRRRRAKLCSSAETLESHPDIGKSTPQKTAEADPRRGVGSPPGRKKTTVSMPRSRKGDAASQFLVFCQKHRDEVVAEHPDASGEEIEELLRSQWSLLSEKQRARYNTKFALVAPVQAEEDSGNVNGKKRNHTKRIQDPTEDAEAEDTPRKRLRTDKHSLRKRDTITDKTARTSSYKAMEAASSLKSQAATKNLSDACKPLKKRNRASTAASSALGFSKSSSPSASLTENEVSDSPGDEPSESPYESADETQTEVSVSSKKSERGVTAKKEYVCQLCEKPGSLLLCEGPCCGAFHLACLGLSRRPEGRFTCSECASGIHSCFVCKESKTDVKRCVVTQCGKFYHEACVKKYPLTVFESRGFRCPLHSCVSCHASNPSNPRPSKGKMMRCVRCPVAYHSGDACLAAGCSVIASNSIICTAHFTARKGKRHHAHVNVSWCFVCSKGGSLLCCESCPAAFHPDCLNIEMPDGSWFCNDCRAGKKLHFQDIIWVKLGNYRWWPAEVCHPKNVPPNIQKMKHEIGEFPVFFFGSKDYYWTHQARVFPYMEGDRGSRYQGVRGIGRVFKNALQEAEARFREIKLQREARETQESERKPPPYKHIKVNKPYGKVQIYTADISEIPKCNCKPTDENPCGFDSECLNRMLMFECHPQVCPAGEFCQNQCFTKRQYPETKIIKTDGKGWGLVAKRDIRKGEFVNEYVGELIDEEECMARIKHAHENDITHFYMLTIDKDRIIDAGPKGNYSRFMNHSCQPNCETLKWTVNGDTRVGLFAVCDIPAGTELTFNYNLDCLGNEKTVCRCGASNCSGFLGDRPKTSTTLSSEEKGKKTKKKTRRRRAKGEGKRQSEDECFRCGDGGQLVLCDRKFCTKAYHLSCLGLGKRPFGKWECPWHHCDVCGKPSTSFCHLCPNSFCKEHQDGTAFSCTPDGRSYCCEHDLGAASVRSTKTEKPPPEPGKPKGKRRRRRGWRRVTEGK
Listed below: IC50 values for each entry.

See these solved cases before continuing.
{"columns": ["molecule", "test target", "IC50"],
 "data": [
  ["N#Cc1c2c(c3nncn3c1NCc1ccco1)CN(Cc1ccccc1)CC2", "NSD2 (Homo sapiens, UniProt O96028)", "> 100 µM"],
  ["COc1cc(-c2cc3n(c(=N)c2C#N)CCc2cc4c(cc2-3)OCO4)ccc1OC(C)C", "NSD2 (Homo sapiens, UniProt O96028)", "> 100 µM"]
]}

Read the next record carefully.
Record COc1cccc(CC2CC3Cc4c(cccc4OC)CC3N(C)C2)c1 (stereo not drawn) . Reported IC50: > 100 µM

====

Here, each record is paired with measured IC50 data.
biological target: SetD8 (Homo sapiens)
Sequence (Q9NQR1 whole entry, species assumed): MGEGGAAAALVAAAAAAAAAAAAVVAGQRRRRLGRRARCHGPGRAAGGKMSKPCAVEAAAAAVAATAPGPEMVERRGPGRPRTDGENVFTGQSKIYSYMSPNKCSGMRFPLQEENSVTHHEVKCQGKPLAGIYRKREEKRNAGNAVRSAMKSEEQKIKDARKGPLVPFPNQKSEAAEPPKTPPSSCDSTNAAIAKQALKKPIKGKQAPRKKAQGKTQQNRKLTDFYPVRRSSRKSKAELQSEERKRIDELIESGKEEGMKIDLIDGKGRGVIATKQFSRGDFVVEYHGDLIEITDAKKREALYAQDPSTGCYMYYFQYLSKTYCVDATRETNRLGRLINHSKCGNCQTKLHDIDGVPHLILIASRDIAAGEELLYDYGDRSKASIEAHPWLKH

{"columns": ["compound", "IC50"],
 "data": [
  ["Cc1cc(C)n(-c2cc(N3CCc4ccccc4C3)ccc2[N+](=O)[O-])n1", "> 100 µM"]
]}

# lookup: `N#Cc1c2c(c3nncn3c1NCc1ccco1)CN(Cc1ccccc1)CC2` on SetD8 (Homo sapiens), IC50 = > 100 µM

The compound COc1cccc(CC2CC3Cc4c(cccc4OC)CC3N(C)C2)c1 (stereo not shown) , tested on SetD8 (Homo sapiens), showed IC50 of > 100 µM

For the compound COc1ccccc1CN1CC(c2cn(C)c3ccccc23)C(N(C)C)C1 (stereo not shown) , the measured IC50 on SetD8 (Homo sapiens) was > 100 µM

====

Quick reference: pIC50 of the listed items.
target: EZH2 (EZH2/EED/SUZ12/RBAP48/AEBP2) (Homo sapiens, UniProt O75530+Q15910); assay: HMT panel selectivity: EZH2; assay type: biochemical
Sequence (Q15910 whole entry): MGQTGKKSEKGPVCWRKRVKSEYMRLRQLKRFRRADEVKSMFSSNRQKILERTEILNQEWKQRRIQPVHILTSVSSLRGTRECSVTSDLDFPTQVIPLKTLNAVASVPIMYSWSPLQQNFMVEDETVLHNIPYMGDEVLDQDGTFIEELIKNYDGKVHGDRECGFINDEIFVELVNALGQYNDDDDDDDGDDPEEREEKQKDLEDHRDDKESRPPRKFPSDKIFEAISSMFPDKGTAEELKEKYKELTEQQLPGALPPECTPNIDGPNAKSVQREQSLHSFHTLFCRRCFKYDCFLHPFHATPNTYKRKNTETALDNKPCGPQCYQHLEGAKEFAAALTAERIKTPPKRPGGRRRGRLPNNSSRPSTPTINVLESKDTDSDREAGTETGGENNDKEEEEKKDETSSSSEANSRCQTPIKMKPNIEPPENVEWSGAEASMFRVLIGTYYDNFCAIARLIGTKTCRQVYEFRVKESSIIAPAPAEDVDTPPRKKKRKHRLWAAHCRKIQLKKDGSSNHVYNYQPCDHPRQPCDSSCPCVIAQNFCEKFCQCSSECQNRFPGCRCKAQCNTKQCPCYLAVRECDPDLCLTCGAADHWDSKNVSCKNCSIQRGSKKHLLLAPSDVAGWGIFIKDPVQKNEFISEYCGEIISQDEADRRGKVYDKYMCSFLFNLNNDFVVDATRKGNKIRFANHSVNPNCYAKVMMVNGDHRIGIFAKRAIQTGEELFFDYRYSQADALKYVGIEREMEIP
Sequence (O75530 whole entry): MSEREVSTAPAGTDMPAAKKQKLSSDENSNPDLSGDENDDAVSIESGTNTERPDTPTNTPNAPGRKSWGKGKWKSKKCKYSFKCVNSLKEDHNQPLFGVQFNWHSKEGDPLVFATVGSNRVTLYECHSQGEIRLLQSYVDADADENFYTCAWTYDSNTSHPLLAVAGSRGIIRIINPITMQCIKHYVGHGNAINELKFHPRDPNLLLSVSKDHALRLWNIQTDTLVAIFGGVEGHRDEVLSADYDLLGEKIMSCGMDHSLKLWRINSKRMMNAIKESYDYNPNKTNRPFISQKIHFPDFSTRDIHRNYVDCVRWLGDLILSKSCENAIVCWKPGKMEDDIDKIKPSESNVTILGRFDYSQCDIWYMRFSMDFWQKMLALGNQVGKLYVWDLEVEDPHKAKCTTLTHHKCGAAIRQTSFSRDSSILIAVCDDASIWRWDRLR
Sequence (Q15022 whole entry partner): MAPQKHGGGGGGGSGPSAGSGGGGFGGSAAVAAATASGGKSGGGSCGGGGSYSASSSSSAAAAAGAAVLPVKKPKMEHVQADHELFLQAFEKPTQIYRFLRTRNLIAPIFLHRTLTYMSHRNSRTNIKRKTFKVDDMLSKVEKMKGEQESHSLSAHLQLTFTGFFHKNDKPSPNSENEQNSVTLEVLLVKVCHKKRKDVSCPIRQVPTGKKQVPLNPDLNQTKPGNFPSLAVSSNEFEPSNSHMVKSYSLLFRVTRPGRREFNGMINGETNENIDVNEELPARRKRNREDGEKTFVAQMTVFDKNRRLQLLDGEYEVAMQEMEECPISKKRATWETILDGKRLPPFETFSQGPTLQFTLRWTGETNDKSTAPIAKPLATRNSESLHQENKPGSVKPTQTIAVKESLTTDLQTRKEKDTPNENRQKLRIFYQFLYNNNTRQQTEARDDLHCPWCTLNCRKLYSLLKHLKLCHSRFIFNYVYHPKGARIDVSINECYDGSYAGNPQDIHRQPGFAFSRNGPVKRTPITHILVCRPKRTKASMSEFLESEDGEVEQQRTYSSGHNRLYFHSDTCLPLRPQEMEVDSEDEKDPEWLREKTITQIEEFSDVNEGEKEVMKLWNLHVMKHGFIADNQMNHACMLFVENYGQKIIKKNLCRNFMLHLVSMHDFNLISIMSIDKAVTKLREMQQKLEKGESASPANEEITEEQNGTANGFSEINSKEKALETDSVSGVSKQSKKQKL
Sequence (Q09028 whole entry partner): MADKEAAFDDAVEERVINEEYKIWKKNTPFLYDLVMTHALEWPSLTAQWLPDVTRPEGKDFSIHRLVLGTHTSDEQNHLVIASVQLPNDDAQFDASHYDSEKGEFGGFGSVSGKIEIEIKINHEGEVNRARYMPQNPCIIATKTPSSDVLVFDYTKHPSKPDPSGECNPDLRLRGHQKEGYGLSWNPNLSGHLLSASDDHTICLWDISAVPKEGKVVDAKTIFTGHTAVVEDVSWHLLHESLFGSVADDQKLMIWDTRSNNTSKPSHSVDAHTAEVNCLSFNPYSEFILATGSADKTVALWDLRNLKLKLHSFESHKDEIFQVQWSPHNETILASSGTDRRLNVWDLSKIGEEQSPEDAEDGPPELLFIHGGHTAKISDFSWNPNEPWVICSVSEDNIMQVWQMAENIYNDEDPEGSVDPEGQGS
Sequence (Q6ZN18 whole entry partner): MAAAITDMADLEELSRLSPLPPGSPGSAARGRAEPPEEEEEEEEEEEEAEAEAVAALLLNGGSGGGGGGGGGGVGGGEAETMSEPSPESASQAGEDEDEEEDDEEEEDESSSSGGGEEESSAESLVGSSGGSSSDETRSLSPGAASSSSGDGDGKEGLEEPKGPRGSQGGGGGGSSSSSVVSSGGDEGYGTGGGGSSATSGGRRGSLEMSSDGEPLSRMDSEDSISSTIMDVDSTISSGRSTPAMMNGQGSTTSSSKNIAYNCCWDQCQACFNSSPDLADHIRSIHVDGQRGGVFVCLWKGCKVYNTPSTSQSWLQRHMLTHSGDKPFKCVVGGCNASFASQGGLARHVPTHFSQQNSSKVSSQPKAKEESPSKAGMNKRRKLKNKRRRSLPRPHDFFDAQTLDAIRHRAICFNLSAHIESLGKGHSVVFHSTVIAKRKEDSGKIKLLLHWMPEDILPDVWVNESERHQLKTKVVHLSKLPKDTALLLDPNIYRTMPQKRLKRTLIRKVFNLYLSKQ
Just so you know, pIC50 here is -log10 of the concentration in molar units; reply with that number alone.

// worked examples, pIC50 included
{"columns": ["mol smiles", "value kind", "observed measurement"],
 "data": [
  ["Cc1cc(C)n(-c2cc(N3CCc4ccccc4C3)ccc2[N+](=O)[O-])n1", "pIC50", 4.00],
  ["COc1cc(-c2cc3n(c(=N)c2C#N)CCc2cc4c(cc2-3)OCO4)ccc1OC(C)C", "pIC50", 4.06]
]}

# evaluate next
The reported pIC50 of the compound `N#Cc1c2c(c3nncn3c1NCc1ccco1)CN(Cc1ccccc1)CC2` was 5.66

====

Reported pIC50 values for the following molecules.
biological target: UniProtKB P26358
pIC50: −log10 of the molar value.

{"columns": ["molecule", "pIC50"],
 "data": [
  ["COc1cccc(CC2CC3Cc4c(cccc4OC)CC3N(C)C2)c1 (centres unmarked)", "< 4.00"]
]}

# value of pIC50, UniProtKB P26358, item `N#Cc1c2c(c3nncn3c1NCc1ccco1)CN(Cc1ccccc1)CC2` = < 4.00
